Please provide measured T/C for the entries that follow.
Test system: P388 leukemia ip, CD2F1 mice, survival T/C
Experiment: NCI In Vivo Anticancer Drug Screen. Data for tumor model P388 Leukemia (intraperitoneal) in CD2F1 (CDF1) mice
Conditions: endpoint: median survival time; dose: 100.0 mg/kg/injection; schedule: Q04DX002 (ip); vehicle: saline; higher = longer survival
Inconclusive results and toxic doses are left out.

Q) For the compound C=CC(=O)P(=O)(OCC)OCC , give its measured T/C value.
A) 107 % of control

Q) Give recorded T/C. CC12Cc3cn[nH]c3CC1CCC1C2CCC2(C)C1CCC2(C)O (stereo not given)
A) 98 % of control

Q) Output T/C of N=C(N)SCC(=O)n1ccc(=O)n(C(=O)CSC(=N)N)c1=O
A) 100 % of control

Q) Quick one: give measured T/C for Cc1cccc(C2(C)C(=O)c3ccccc3C2=O)c1
A) 100 % of control

Q) Look up and report measured T/C for this entry: Cc1cc(C)n(-c2ccc3nnnn3n2)n1
A) 93 % of control

----------
System: P388 leukemia ip, CD2F1 mice, survival T/C
Assay: NCI In Vivo Anticancer Drug Screen. Data for tumor model P388 Leukemia (intraperitoneal) in CD2F1 (CDF1) mice
Settings: endpoint: median survival time; dose: 50.0 mg/kg/injection; schedule: Q01DX009 (ip); vehicle: saline with Tween-80; higher = longer survival
Toxic doses and inconclusive results are not listed.
Give measured T/C for each item. Keep answers brief.

Q) Identify T/C associated with the compound Cc1ccc(S(=O)(=O)Nc2cc(C)cc(CCNC=O)c2C)cc1
A) 104 % of control

Q) Could you please provide reported T/C for CS(=O)(=O)/C=C/c1ccccc1 ? Thanks!
A) 103 % of control

Q) Return T/C (reported value) for this compound: C(=C\C1CC2CCCN2O1)/c1ccccc1 (configuration not stated)
A) 105 % of control

Q) Give T/C for COC1/C=C/OC2(C)Oc3c(C)c(O)c4c(O)c(c(/C=N/N5C(C)CN(Cc6ccccc6C#N)CC5C)c(O)c4c3C2=O)NC(=O)/C(C)=C\C=C\C(C)C(O)C(C)C(O)C(C)C(OC(C)=O)C1C (configuration not stated)
A) 109 % of control

Q) Respond only with T/C recorded for O=[N+]([O-])c1c(Sc2ccccc2)ncnc1Sc1ccccc1
A) 91 % of control

Q) Quote T/C reported for COC(=O)C1C(=O)CC2C(C(=O)OC)C(=O)CC12 (configuration not stated) please.
A) 99 % of control

Q) Supply measured T/C of CCOC(CNc1c[nH]c(=O)[nH]c1=O)OCC in your reply.
A) 100 % of control

Q) Write down T/C measured for item Cc1cccc(Nc2c(N)nc(N)nc2N)c1
A) 109 % of control

Q) Please list T/C recorded for the compound CN(C)C(=S)SC(=S)Sc1c(Cl)c(Cl)c(Cl)c(Cl)c1Cl
A) 99 % of control

Q) Quick one: give measured T/C for Clc1ccc(N=Cc2ccc(C=Nc3ccc(Cl)c(Cl)c3)cc2)cc1Cl
A) 90 % of control

Q) Return reported T/C. Input compound: CS(=O)(=O)CCS(C)(=O)=O
A) 102 % of control

Q) Give the measured T/C for N#CN=CN1CCN(c2ccccc2)CC1
A) 100 % of control

----------
System: P388 leukemia ip, CD2F1 mice, survival T/C
Experiment: NCI In Vivo Anticancer Drug Screen. Data for tumor model P388 Leukemia (intraperitoneal) in CD2F1 (CDF1) mice
Details: endpoint: median survival time; dose: 12.5 mg/kg/injection; schedule: Q01DX005 (ip); vehicle: saline
Inconclusive results and toxic doses are left out. How the source made its calls: active means survival T/C of 150% or more; inactive means T/C below 125% in these data.
Give your call using only these classes: active, inactive

Q) How did this test come out for O=S1(=O)CS(=O)(=O)OCCCCO1 ?
A) active

Q) Could you kindly confirm the outcome this assay logged for CN(C)c1ccc(N)c(N)c1 ?
A) inactive

Q) Lab log entry: O=c1cccc2n1C[C@H]1C[C@@H]2CN2CCCC[C@H]12 — outcome as called in the assay?
A) inactive

Q) In this assay, the call recorded for CCN(CC)CCCC(C)N(C)CC(C)CCC1=C(C)CCCC1(C)C (centres undefined) was what?
A) inactive

Q) Record lookup: outcome of this test for CC1=CC(=Nc2cc(Br)c(O)c(Br)c2)C=CC1=O ?
A) inactive

Q) Give the logged outcome of this assay for the following compound: CC(C)CC(C(=O)O)N(CC(=O)O)CC(=O)O (centres undefined)
A) inactive

Q) # fetch the recorded call for CC1=CC(C)C[N+](C)(C)C1 (centres undefined) here
A) inactive

Q) So what was the verdict on CN(C)CCCNC(=O)c1ccc2c(c1O)C(=O)c1ccccc1C2=O in this test?
A) inactive

Q) Each compound tested received a call. Report the one for CCOC(=O)C(c1ccccc1)N(CCCN(CC)CC)c1ccccc1 (centres undefined) .
A) inactive

----------
Tested on: P388 leukemia ip, CD2F1 mice, survival T/C
Assay: NCI In Vivo Anticancer Drug Screen. Data for tumor model P388 Leukemia (intraperitoneal) in CD2F1 (CDF1) mice
Conditions: endpoint: median survival time; dose: 50.0 mg/kg/injection; schedule: Q01DX001 (ip); vehicle: saline; higher = longer survival
Toxic doses and inconclusive results are not listed.
Would you mind telling me the reported T/C of each entry?

Q) Name the recorded T/C of the compound listed here: Cc1cccc(Br)[n+]1[O-]
A) 100 % of control

Q) For the compound CC1(C)CC(C)(C)[P+]1(C)c1ccccc1 , report T/C.
A) 103 % of control

Q) Please look at this compound and report its T/C: NCC(S)c1ccc(Cl)cc1 (stereo not given)
A) 100 % of control

Q) Retrieve T/C measured for CCSc1cccc2nncn12 and print it.
A) 103 % of control

Q) // Input: NC(N)=N/N=C1\C/C(=N\N=C(N)N)c2cc3ccccc3cc21 . Output its T/C only.
A) 98 % of control

----------
Please respond with reported T/C for every item in the list.
System: P388 leukemia ip, CD2F1 mice, survival T/C
Assay: NCI In Vivo Anticancer Drug Screen. Data for tumor model P388 Leukemia (intraperitoneal) in CD2F1 (CDF1) mice
Details: endpoint: median survival time; dose: 60.0 mg/kg/injection; schedule: Q01DX005 (ip); vehicle: Klucel (hydroxypropylcellulose) (HPC); higher = longer survival
Toxic doses and inconclusive results are not listed.

Q) Provide measured T/C value, entry: COc1ccc(OC)c2c(Cl)cc(NCCCCCCCCNc3cc(Cl)c4c(OC)ccc(OC)c4n3)nc12
A) 101 % of control

Q) In one line, give reported T/C of the entry CN(C)C(CS(=O)(=O)c1ccccc1)c1ccccc1 (stereo unspecified) .
A) 100 % of control

Q) Fill in reported T/C for this entry: O=C1C2=C(Nc3ccccc3N2)OC1c1ccc2c(c1)OCO2 (stereo unspecified)
A) 100 % of control

Q) Provide T/C value for the following compound: O=CC1=CSC(=C2SC=CS2)S1
A) 101 % of control

Q) # return recorded T/C for entry Cc1ccc(NCN2C(=O)c3ccccc3C2=O)c(C)n1
A) 92 % of control

Q) Output measured T/C for this item: NC(=S)n1nc(-c2cccs2)c(N=Nc2ccc(Cl)cc2)c1C(F)(F)F
A) 87 % of control

Q) In one line, give reported T/C of the entry CCCCCCCCCCCCCCCCCSc1c(O)c(O)c2cccnc2c1O (tested in a mixture with another compound) .
A) 104 % of control

Q) Complete the entry with T/C for CC(=O)OC1(c2ccccc2)N=C(c2ccccc2)N=C1c1ccccc1 (stereo unspecified)
A) 106 % of control

Q) Report T/C for CS/N=C(/c1ccc(/C(=N/SC)N(C)C)cc1)N(C)C
A) 106 % of control

Q) For the compound Cn1c(N)nc2c([nH]c(=O)n2C2OC(CO)C(O)C2O)c1=O (stereo unspecified) , give its measured T/C value.
A) 105 % of control

Q) Fill in reported T/C for this entry: N#Cc1c[nH]n2ccnc12
A) 101 % of control

Q) Please supply the value of reported T/C for the item c1ccc2c(SCCCCCCCCCCCSc3c4ccccc4nc4ccccc34)c3ccccc3nc2c1
A) 106 % of control

Q) Return T/C (reported value) for this compound: Clc1nc(Cl)nc(Nc2ncccn2)n1
A) 100 % of control

Q) Retrieve T/C measured for O=C1Nc2ccccc2C1=Nc1ccc2[nH]c3ccccc3c2c1 and print it.
A) 92 % of control

Q) Please indicate T/C recorded for COC(=O)NN(C(=O)OC)C12CCCC1N(C(=O)OC)N(C(=O)OC)c1c2ccc2ccccc12 (stereo unspecified)
A) 103 % of control

Q) Dear colleague, please send me the reported T/C for Cc1cc(=O)oc2c(-c3ccccc3)n[nH]c(=O)c12 when you can.
A) 104 % of control

Q) For the compound COc1ccc2oc(=O)n(N=C(C)C)c(=O)c2c1 , report T/C.
A) 97 % of control

Q) Give the value of T/C reported for the following: O/N=C/C(=NCc1ccccn1)NO
A) 107 % of control

Q) Fill in T/C for record COc1ccc(N(CN2C(=O)CCC2=O)CS(=O)(=O)c2ccc(Cl)cc2)cc1
A) 97 % of control

Q) Using known records, supply T/C for Clc1cc(=Nc2ccccc2)n2ccccc2n1
A) 96 % of control

Q) Specify T/C for CCOC(=O)c1ccc(NC(=O)Nc2ccccc2OC)cc1 and stop.
A) 88 % of control

Q) Provide only the value of recorded T/C for CC1=C(O)c2cc3c(cc2C(=O)C1=O)OCO3
A) 98 % of control

Q) Tell me measured T/C for Cc1cc(=O)n(-c2ccc(F)cc2)[nH]1 please.
A) 89 % of control

Q) Indicate its recorded T/C; the compound in question is CC(C)=NNC1=NC(CC(C)C)P(=O)(NCCCCCCNP2(=O)SC(NN=C(C)C)=NC2CC(C)C)S1 (stereo unspecified)
A) 97 % of control

Q) Give the measured T/C for O=C(Nn1c(=O)[nH]c2ccccc2c1=O)c1ccc(Cl)cc1
A) 98 % of control

Q) State its T/C: c1ccc(OCCNCCOc2ccccc2)cc1
A) 104 % of control
